Let's look at some molecules and their measured thermal shift delta Tm.
- Tested on: LOC_OS01G39600-cb002
- ASSAY: thermal shift delta Tm vs DMSO control; higher = stronger stabilization (binding);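 note: purified Escherichia coli-expressed rice kinase domain construct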
- SETUP CONDITIONS: 12.5 µM; protein concentration 2 µM
ATTRIBUTE MEASURED: thermal shift delta Tm

line_notation=Nc1cccc(-c2cc3c(Oc4cccc(O)c4)ncnc3[nH]2)c1 measured_value="3.68 °C"
line_notation=CN1CCN(c2cccc(Nc3nc4c(-c5ccc(S(C)(=O)=O)cc5)cccn4n3)c2)CC1 measured_value="2.12 °C"
line_notation=O=c1cc(N2CCOCC2)oc2c1ccc1ccccc12 measured_value="-0.09 °C"

---

- Test system: LOC_OS01G48390-cb002
- ASSAY: thermal shift delta Tm vs DMSO control; higher = stronger stabilization (binding)
- SETUP CONDITIONS: 12.5 µM; protein concentration 2 µM
Where thermal shift delta Tm equals or exceeds 1 °C, the correct label is true (1); where it does not, the label is false (0).

compound="CO[C@H]1C[C@@H]2CC[C@@H](C)[C@@](O)(O2)C(=O)C(=O)N2CCCC[C@H]2C(=O)O[C@H]([C@H](C)C[C@@H]2CC[C@@H](O)[C@H](OC)C2)CC(=O)[C@H](C)/C=C(\\C)[C@@H](O)[C@@H](OC)C(=O)[C@H](C)C[C@H](C)/C=C/C=C/C=C/1C [Rapamycin (Sirolimus)]" system_tested=LOC_OS01G48390-cb002 class_assignment="false (0)"
compound=CC1(COc2ccc3c(c2)ncn3-c2ccc3cccc(N4CCC(N)CC4)c3n2)COC1 system_tested=LOC_OS01G48390-cb002 class_assignment="false (0)"
compound="CC(C)c1cnn2c(NCc3ccccc3-n3cccn3)nc(OC3CCCNC3)nc12 (configuration not stated)" system_tested=LOC_OS01G48390-cb002 class_assignment="false (0)"
compound=Nc1cc(C(F)(F)F)c(-c2cc(N3CCOCC3)nc(N3CCOCC3)n2)cn1 system_tested=LOC_OS01G48390-cb002 class_assignment="false (0)"
compound=C=CC(=O)Nc1cccc(Oc2nc(Nc3ccc(N4CCN(C)CC4)cc3)ncc2Cl)c1 system_tested=LOC_OS01G48390-cb002 class_assignment="true (1)"
compound=CCCCNc1ncc2c(-c3ccc(CN4CCN(C)CC4)cc3)cn([C@H]3CC[C@H](O)CC3)c2n1 system_tested=LOC_OS01G48390-cb002 class_assignment="true (1)"
compound=O=C(c1cccc(Cl)c1F)N1CCN(Cc2cccc(Nc3nccs3)n2)CC1 system_tested=LOC_OS01G48390-cb002 class_assignment="true (1)"
compound=CN1CCN(c2ccc(-c3ccncc3-c3cc(F)c(O)c(F)c3)cc2)CC1 system_tested=LOC_OS01G48390-cb002 class_assignment="false (0)"
compound=CC(C)N(CCC(=O)c1ccc2ccccc2c1)Cc1ccccc1 system_tested=LOC_OS01G48390-cb002 class_assignment="false (0)"
compound=Cn1cc(-c2ccc3nnc(C(F)(F)c4ccc5ncccc5c4)n3n2)cn1 system_tested=LOC_OS01G48390-cb002 class_assignment="false (0)"
compound=CC(C)(O)CNc1ncc(-c2ccnc(Nc3ccnc(Cl)c3)n2)c(CC2CC2)n1 system_tested=LOC_OS01G48390-cb002 class_assignment="false (0)"
compound=COc1cc(N2CCC(N(C)C)CC2)ccc1Nc1ncc(Cl)c(Nc2ccccc2P(C)(C)=O)n1 system_tested=LOC_OS01G48390-cb002 class_assignment="false (0)"
compound="Cc1cc(Nc2cc(N3CCN(C)CC3)nc(/C=C/c3ccccc3)n2)n[nH]1 [ENMD-2076 L-(+)-Tartaric acid]" system_tested=LOC_OS01G48390-cb002 class_assignment="true (1)"
compound=O=c1cc(N2CCOCC2)oc2c(-c3ccccc3)cccc12 system_tested=LOC_OS01G48390-cb002 class_assignment="true (1)"
compound=Cc1ncc(CCCN(C)C)cc1Nc1ncc2c(n1)-c1ccc(C(F)(F)F)cc1NC(=S)C2 system_tested=LOC_OS01G48390-cb002 class_assignment="true (1)"
compound=COc1ccc([C@@H]2OC[C@H]3[C@@H]2CO[C@@H]3c2ccc(O[C@@H]3O[C@H](CO)[C@@H](O)[C@H](O)[C@H]3O)c(OC)c2)cc1OC system_tested=LOC_OS01G48390-cb002 class_assignment="false (0)"
compound=C=CC(=O)N1CCN(CCCn2c(=O)c(-c3c(Cl)c(OC)cc(OC)c3Cl)cc3cnc(NC)nc32)CC1 system_tested=LOC_OS01G48390-cb002 class_assignment="false (0)"
compound=O=C(Nc1nc2cccc(-c3ccc(CN4CCS(=O)(=O)CC4)cc3)n2n1)C1CC1 system_tested=LOC_OS01G48390-cb002 class_assignment="false (0)"
compound=CC(C)(O)CNc1ncc(-c2ccnc(Nc3ccncc3)n2)c(CC2CC2)n1 system_tested=LOC_OS01G48390-cb002 class_assignment="true (1)"
compound=CC(C)(C)c1nc(-c2ccc(NC(=O)Nc3cccc(C(F)(F)F)c3)c3ccccc23)c2c(N)nccn12 system_tested=LOC_OS01G48390-cb002 class_assignment="true (1)"
compound=Cc1ccc(C(=O)Nc2cccc(C(F)(F)F)c2)cc1Nc1nc(-c2cccnc2)nc2c1cnn2C system_tested=LOC_OS01G48390-cb002 class_assignment="true (1)"
compound=Cc1ccc(F)c(NC(=O)Nc2ccc(-c3cccc4[nH]nc(N)c34)cc2)c1 system_tested=LOC_OS01G48390-cb002 class_assignment="true (1)"

---

- Tested on: LOC_OS06G22820-cb001
- Sequence (as listed by the source): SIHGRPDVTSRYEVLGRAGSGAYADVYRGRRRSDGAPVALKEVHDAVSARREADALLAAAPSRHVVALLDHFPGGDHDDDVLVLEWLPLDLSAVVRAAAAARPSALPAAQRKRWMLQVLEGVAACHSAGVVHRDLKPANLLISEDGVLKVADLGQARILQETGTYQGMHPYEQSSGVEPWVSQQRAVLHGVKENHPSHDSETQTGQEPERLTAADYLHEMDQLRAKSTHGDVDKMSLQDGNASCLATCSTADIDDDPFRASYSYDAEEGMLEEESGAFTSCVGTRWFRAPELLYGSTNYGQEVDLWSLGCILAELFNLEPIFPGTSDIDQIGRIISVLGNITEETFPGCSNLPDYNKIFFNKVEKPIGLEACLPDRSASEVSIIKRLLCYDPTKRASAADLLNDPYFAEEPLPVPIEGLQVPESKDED
- ASSAY: thermal shift delta Tm vs DMSO control; higher = stronger stabilization (binding)
- SETUP CONDITIONS: 12.5 µM; protein concentration 2 µM
Let's look at some molecules and their measured thermal shift delta Tm.
ATTRIBUTE MEASURED: thermal shift delta Tm

molecule=Cn1cc(-c2ccc3nnc(Sc4ccc5ncccc5c4)n3n2)cn1 system_tested=LOC_OS06G22820-cb001 attribute_measured="thermal shift delta Tm" measured_value="0.36 °C"
molecule="COc1cc(Nc2ncc(F)c(Nc3ccc4c(n3)NC(=O)C(C)(C)O4)n2)cc(OC)c1OC [R406 (free base)]" system_tested=LOC_OS06G22820-cb001 attribute_measured="thermal shift delta Tm" measured_value="0.44 °C"
molecule=Cc1ccc(C(=O)Nc2ccc(Oc3cc4cnn(C)c4cc3-c3cn[nH]c3)c(F)c2)c(=O)n1-c1ccc(F)cc1 system_tested=LOC_OS06G22820-cb001 attribute_measured="thermal shift delta Tm" measured_value="1.28 °C"
molecule=Cc1nc2ccc(-n3ncc(C(=O)c4cc5ccccc5[nH]4)c3N)cc2[nH]1 system_tested=LOC_OS06G22820-cb001 attribute_measured="thermal shift delta Tm" measured_value="0.56 °C"
molecule=CCn1c(-c2nonc2N)nc2c(C#CC(C)(C)O)ncc(OC[C@H]3CCCNC3)c21 system_tested=LOC_OS06G22820-cb001 attribute_measured="thermal shift delta Tm" measured_value="0.88 °C"
molecule=C[C@H](CN(C)C)Oc1nc(Nc2cc3cccc(Cl)c3cn2)cnc1C#N system_tested=LOC_OS06G22820-cb001 attribute_measured="thermal shift delta Tm" measured_value="0.49 °C"
molecule="CN1CCN(c2ccc3nc(-c4c(N)c5c(F)cccc5[nH]c4=O)[nH]c3c2)CC1 [Dovitinib (TKI258) Lactate]" system_tested=LOC_OS06G22820-cb001 attribute_measured="thermal shift delta Tm" measured_value="0.62 °C"
molecule=Cc1nc(Nc2ncc(C(=O)Nc3c(C)cccc3Cl)s2)cc(N2CCN(CCO)CC2)n1 system_tested=LOC_OS06G22820-cb001 attribute_measured="thermal shift delta Tm" measured_value="0.79 °C"
molecule="COc1cc(F)c(F)c(Nc2ccc(I)cc2F)c1NS(=O)(=O)C1(C[C@H](O)CO)CC1 [Refametinib (RDEA119, Bay 86-9766)]" system_tested=LOC_OS06G22820-cb001 attribute_measured="thermal shift delta Tm" measured_value="1.27 °C"
molecule=COC(=O)Nc1ccc(-c2nc(N3CCOCC3)c3cnn(C4CCN(C(=O)OC)CC4)c3n2)cc1 system_tested=LOC_OS06G22820-cb001 attribute_measured="thermal shift delta Tm" measured_value="0.4 °C"
molecule="O=C1NC(=O)C(=Cc2ccc(-c3ccc(F)cc3)o2)S1 (stereo in doubt)" system_tested=LOC_OS06G22820-cb001 attribute_measured="thermal shift delta Tm" measured_value="0.65 °C"
molecule=CNS(=O)(=O)Nc1nccc(Cc2c(C)c3ccc(Oc4ncccn4)cc3oc2=O)c1F system_tested=LOC_OS06G22820-cb001 attribute_measured="thermal shift delta Tm" measured_value="0.62 °C"
molecule=CC[C@@H](N)CNc1ccnc(-c2cc(-c3cnn(C)c3)ccc2O)n1 system_tested=LOC_OS06G22820-cb001 attribute_measured="thermal shift delta Tm" measured_value="0.55 °C"
molecule=CCn1cc(-c2ccnc3[nH]c(-c4cccc(CN(C)C)c4)cc23)c(-c2ccc(NC(=O)N(C)C)cc2)n1 system_tested=LOC_OS06G22820-cb001 attribute_measured="thermal shift delta Tm" measured_value="0.71 °C"
molecule=COc1cc2ncnc(Nc3cccc(Cl)c3)c2cc1OC system_tested=LOC_OS06G22820-cb001 attribute_measured="thermal shift delta Tm" measured_value="0.8 °C"
molecule=FC(F)(F)c1ccc(CNc2ccc(Cc3c[nH]c4ncc(Cl)cc34)cn2)cn1 system_tested=LOC_OS06G22820-cb001 attribute_measured="thermal shift delta Tm" measured_value="0.41 °C"
molecule=CCN(CC)CCNC(=O)c1c(C)[nH]c(/C=C2\C(=O)Nc3ccc(F)cc32)c1C system_tested=LOC_OS06G22820-cb001 attribute_measured="thermal shift delta Tm" measured_value="0.22 °C"
molecule=CCS(=O)(=O)N1CCN(c2ccc(Nc3ncc(C(N)=O)c(NC4CC4)n3)cc2)CC1 system_tested=LOC_OS06G22820-cb001 attribute_measured="thermal shift delta Tm" measured_value="0.57 °C"
molecule=CNC(=O)c1ccc(-c2cnc3ncc(Cc4ccc5ncccc5c4)n3n2)cc1F system_tested=LOC_OS06G22820-cb001 attribute_measured="thermal shift delta Tm" measured_value="0.46 °C"
molecule=CCS(=O)(=O)c1cccc(-c2cc(C(=O)NC3CCN(C)CC3)c(C)c3[nH]c4ncc(C)cc4c23)c1 system_tested=LOC_OS06G22820-cb001 attribute_measured="thermal shift delta Tm" measured_value="-0.41 °C"
